Below is a list of entries, each paired with its recorded Concentration of radioactivity, spleen, Mean value.
System: grafted B16 F0 murine melanoma tumour
protocol_text: Biodistribution of the ^125I-labelled molecules in the melanoma-bearing mouse (autoradiography of whole-body sections)
applied_conditions: 3 H after i.v. administration, ^125I-labelled compound
Structures can show the parent of a compound that is named as a salt.
Write down the numeric answer in % ID/g and omit the unit.

[[record]]
compound = "CCN(CC)CCNC(=O)c1ccc2cc(I)ccc2c1 [compound 3, hydrochloride]"
result_number = 2.59

[[record]]
compound = "CCN(CC)CCNC(=O)c1cc2cc(I)ccc2[nH]1 [compound 10, hydrochloride]"
result_number = 2.79

[[record]]
compound = "CCN(CC)CCNC(=O)c1ccc(I)nc1 [compound 7, dihydrochloride]"
result_number = 2.68

[[record]]
compound = "CCN(CC)CCNC(=O)c1ccc2cc(I)ccc2n1.Cl.Cl [compound 31]"
result_number = 10.63


query: Using the record for CCN(CC)CCNC(=O)c1nc2ccccn2c1I [compound 16, dihydrochloride] , report its Concentration of radioactivity, spleen, Mean.
result: 12.67

* * *

Let's look at some molecules and their measured tumour concentration, % of the injected dose per gram of tumour.
Tested on: grafted B16 F0 murine melanoma tumour
protocol_text: Biodistribution of the ^125I-labelled molecules in the melanoma-bearing mouse (autoradiography of whole-body sections)
applied_conditions: from the first hour
Where a name gives a salt, the structure may show the parent alone.
Field format: number, assumed % ID/g, no unit text.

Recorded tumour concentration, % of the injected dose per gram of tumour, per entry:
[[record]]
molecule = "CCN(CC)CCNC(=O)c1nc2ccc(I)cc2[nH]1.Cl.Cl [compound 26]"
study_system = "grafted B16 F0 murine melanoma tumour"
result_number = 14.8

[[record]]
molecule = "CCN(CC)CCNC(=O)c1ccc2cc(I)ccc2n1.Cl.Cl [compound 31]"
study_system = "grafted B16 F0 murine melanoma tumour"
result_number = 19.6

[[record]]
molecule = "CCCN(CCC)CCCCNC(=O)c1cnc2cc(I)ccc2n1 [compound 144, dihydrochloride]"
study_system = "grafted B16 F0 murine melanoma tumour"
result_number = 14.7

[[record]]
molecule = "CCN(CC)CCNC(=O)c1cnc2cc(I)ccc2n1.Cl.Cl [compound 46]"
study_system = "grafted B16 F0 murine melanoma tumour"
result_number = 17


Then there is this molecule:
query: For CCCN(CCC)CCCCNC(=O)c1ccc2cc(I)ccc2n1 [compound 49, dihydrochloride] , what is its reported tumour concentration, % of the injected dose per gram of tumour?
result: 19.1

* * *

Below is a list of entries, each paired with its recorded Biodistribution, Mean, thyroid value.
Test system: grafted B16 F0 murine melanoma tumour
protocol_text: Biodistribution of the ^125I-labelled molecules in the melanoma-bearing mouse (autoradiography of whole-body sections)
applied_conditions: thyroid; 1 H
Where a name gives a salt, the structure may show the parent alone.
Field format: numeric only.

Some compounds with known Biodistribution, Mean, thyroid results, for comparison:
[[record]]
compound = "CCN(CC)CCNC(=O)c1cccc2cc3cc(I)ccc3nc12 [compound 111, dihydrochloride]"
result_number = 21.00

[[record]]
compound = "CCN(CC)CCNC(=O)c1ccc2cncc(I)c2n1.Cl.Cl"
result_number = 20.16

[[record]]
compound = "CCN(CC)CCNC(=O)c1cc2c(I)cccc2cn1 [compound 39, dihydrochloride]"
result_number = 16.88


Field: next compound
query: What value of measured Biodistribution, Mean, thyroid is listed for CCCN(CCC)CCCCNC(=O)c1ccc2cc(I)ccc2n1 [compound 49, dihydrochloride] ?
result: 28.75
